# Target Desc: furin, P09958;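 note: purified furin at 1:10 enzyme:substrate in 50 mM HEPES pH 7.5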
# Sequence (P09958 whole entry): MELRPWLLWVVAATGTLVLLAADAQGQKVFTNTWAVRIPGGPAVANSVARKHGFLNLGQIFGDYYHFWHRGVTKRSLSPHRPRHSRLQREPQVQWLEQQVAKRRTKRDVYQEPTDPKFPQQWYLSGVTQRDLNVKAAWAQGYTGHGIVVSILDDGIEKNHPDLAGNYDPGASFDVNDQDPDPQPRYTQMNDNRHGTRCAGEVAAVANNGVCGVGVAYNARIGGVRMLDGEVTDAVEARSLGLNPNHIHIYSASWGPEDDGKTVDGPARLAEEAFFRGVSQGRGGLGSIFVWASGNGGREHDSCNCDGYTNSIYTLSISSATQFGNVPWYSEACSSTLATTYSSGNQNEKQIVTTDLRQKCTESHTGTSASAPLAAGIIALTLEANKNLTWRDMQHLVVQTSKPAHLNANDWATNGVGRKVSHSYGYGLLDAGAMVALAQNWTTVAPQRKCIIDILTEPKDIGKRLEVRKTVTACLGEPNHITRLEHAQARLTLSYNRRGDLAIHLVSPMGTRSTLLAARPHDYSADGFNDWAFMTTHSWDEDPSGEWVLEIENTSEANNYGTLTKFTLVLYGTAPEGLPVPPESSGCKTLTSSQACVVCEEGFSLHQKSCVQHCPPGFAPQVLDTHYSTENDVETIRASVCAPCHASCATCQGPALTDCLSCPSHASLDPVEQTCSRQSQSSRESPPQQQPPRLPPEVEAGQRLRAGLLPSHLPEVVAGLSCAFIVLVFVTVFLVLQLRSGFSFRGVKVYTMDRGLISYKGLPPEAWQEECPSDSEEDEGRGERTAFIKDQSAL
# Assay Details: furin cleavage Z-score vs untreated control; higher = more cleavage, active = 3.5 or more, inactive = 1 or less, 8 variable residues between constant flanks
# Run Conditions: 15 min
The other results are listed elsewhere or left out. The true hit rate is not given.
Outcome (select one): active, inactive

Solved cases (5 shown):
Polymer Sequence	Category Label
CAITPCSAHLAGNASASA [HC2464]	inactive
CARNRRGAITAGNASASA [FS-1912]	active
CARNRRHVTEAGNASASA [FS-3011]	active
CAGDDDDKAGAGNASASA [EK1]	inactive
CASLTERLYVAGNASASA [HC1498]	inactive

Lookup: Status in this test for CAYTTGPCTPAGNASASA [HC1193] ?
Found: inactive
